Listing of entries alongside the reported log10 EC50.
Biological target: hGIPR (Homo sapiens, UniProt P48546)
Construct: expressed in transfected cells; host or cells: CHO cells carrying a CRE-luciferase reporter gene
Sequence (P48546 22-466): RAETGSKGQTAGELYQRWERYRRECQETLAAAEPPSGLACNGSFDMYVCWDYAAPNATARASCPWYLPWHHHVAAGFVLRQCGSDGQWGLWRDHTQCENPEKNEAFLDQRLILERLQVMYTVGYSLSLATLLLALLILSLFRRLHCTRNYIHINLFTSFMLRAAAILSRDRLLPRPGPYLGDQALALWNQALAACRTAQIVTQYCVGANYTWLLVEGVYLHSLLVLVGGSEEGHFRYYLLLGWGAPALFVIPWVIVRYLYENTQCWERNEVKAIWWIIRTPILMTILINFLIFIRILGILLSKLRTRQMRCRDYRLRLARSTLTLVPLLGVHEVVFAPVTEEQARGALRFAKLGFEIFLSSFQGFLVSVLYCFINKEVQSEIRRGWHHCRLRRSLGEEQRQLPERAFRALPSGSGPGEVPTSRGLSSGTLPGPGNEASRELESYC
Experiment: hGIPR CreLuc reporter gene assay in 0.5% and 100% plasma
Assay type: cell-based
Conditions: CreLuc reporter gene assay, 0.5% human plasma; read-out: hGIPR 0.5% hP
Starred links: 1 amine or outer side, 2 acyl side, 3 side chain; linkers in the order of their positions; H or OH if unused. Positions of bridges follow the written chain, without caps; N, C: chain ends. Non-standard residues stand in square brackets, D forms with d. Groups on a side chain read outwards from the residue. Chains are numbered I, II in the order given. No end group written: not given here. *: point of attachment. C20 diacid = O=C(O)CCCCCCCCCCCCCCCCCCC(=O)*; C18 diacid = O=C(O)CCCCCCCCCCCCCCCCC(=O)*; γGlu = O=C(O)[C@H](CCC(=O)[*:2])N[*:1]; εLys = N[C@@H](CCCCN[*:1])C(=O)[*:2]; β3hQ = NC(=O)CC[C@H](N)CC(=O)O; AEEA = NCCOCCOCC(=O)O; Aib = CC(C)(N)C(=O)O; Ahx = NCCCCCC(=O)O
measurementKind: log10 EC50 (log10 of the value in nM)

substance: H-Y[Aib]EGTFTSDYSI[Aib]LEEQAQ[Aib]AFVEWLIK([εLys-γGlu-γGlu-γGlu-γGlu-γGlu-C20 diacid])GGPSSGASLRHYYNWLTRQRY-NH2 [Compound 181]
log10 EC50: -0.80

substance: H-Y[Aib]EGTFTSDYSI[Aib]LEKQAQ[Aib]AFVQWLIK([εLys-γGlu-γGlu-γGlu-γGlu-γGlu-C20 diacid])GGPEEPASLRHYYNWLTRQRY-NH2 [Compound 67]
log10 EC50: -0.54

substance: H-Y[Aib]EGTFTSDYSI[Aib]LEKQAQ[Aib]AFVQWLIK([εLys-γGlu-γGlu-γGlu-γGlu-γGlu-C20 diacid])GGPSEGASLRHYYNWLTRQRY-NH2 [Compound 242]
log10 EC50: -0.49

substance: H-Y[Aib]EGTFTSDYSI[Aib]LEKQAQ[Aib]AFIEWLIK([γGlu-γGlu-γGlu-γGlu-C18 diacid])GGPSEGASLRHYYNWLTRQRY-NH2 [Compound 247]
log10 EC50: -0.59

substance: H-Y[Aib]EGTFTSDYSI[Aib]LEKQAQ[Aib]AFVQWLIK([AEEA-AEEA-γGlu-γGlu-γGlu-C18 diacid])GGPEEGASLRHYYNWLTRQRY-NH2 [Compound 144]
log10 EC50: 0.06

substance: H-Y[Aib]EGTFTSDYSI[Aib]LEKQAQ[Aib]AFVQWLIK([AEEA-AEEA-γGlu-γGlu-γGlu-γGlu-γGlu-C18 diacid])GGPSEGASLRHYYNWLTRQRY-NH2 [Compound 246]
log10 EC50: -0.80

substance: H-Y[Aib]EGTFTSDYSI[Aib]LEKQAQ[Aib]AFVEWLIK([εLys-γGlu-γGlu-γGlu-γGlu-γGlu-γGlu-C20 diacid])GGPSSGASLRHYYNL[Aib]TRQRY-NH2 [Compound 79]
log10 EC50: -0.54

substance: H-Y[Aib]EGTFTSDYSI[Aib]LEKQAQ[Aib]AFVEWLIK([εLys-γGlu-γGlu-γGlu-γGlu-γGlu-γGlu-C20 diacid])GGPSSGIELRHFLNHLTRQRY-NH2 [Compound 2]
log10 EC50: -0.46

substance: H-Y[Aib]EGTFTSDYSI[Aib]LEKQAQ[Aib]AFVEWLIK([εLys-γGlu-γGlu-γGlu-γGlu-γGlu-γGlu-C20 diacid])GGPSEPQSIRHYYNWLTRQRY-NH2 [Compound 48]
log10 EC50: -1.15

substance: I: H-Y[Aib]EGTFTSDYSI[Aib]LEKQAQ[Aib]AFVQWLIKGGPEEGASLRHYYNWLTRQRY-NH2 / II: {C18 diacid}-EEEEE[εLys] (amide I:28-II:C) [Compound 155]
log10 EC50: -0.85

substance: H-Y[Aib]EGTFTSDYSI[Aib]LEKQAQ[Aib]AFIEWLIK([γGlu-γGlu-γGlu-γGlu-C20 diacid])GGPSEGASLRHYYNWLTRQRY-NH2 [Compound 283]
log10 EC50: -0.64

substance: H-Y[Aib]EGTFTSDYSI[Aib]LEKQAQ[Aib]AFVEWLIK([εLys-γGlu-γGlu-γGlu-γGlu-γGlu-γGlu-C20 diacid])GGPSEGASLRHYYNWLTR[β3hQ]RY-NH2 [Compound 277]
log10 EC50: -0.96

substance: Y[Aib]EGTFTSDYSI[Aib]LEKQAQ[Aib]AFVQWLIK([Ahx-γGlu-γGlu-γGlu-γGlu-γGlu-γGlu-C18 diacid])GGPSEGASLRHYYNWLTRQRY-NH2 [Compound 245]
log10 EC50: -0.43

substance: H-Y[Aib]EGTFTSDYSI[Aib]LEEQAQ[Aib]AFVQWLIK([εLys-γGlu-γGlu-γGlu-γGlu-γGlu-C20 diacid])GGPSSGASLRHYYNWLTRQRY-NH2 [Compound 34]
log10 EC50: -0.89

substance: H-Y[Aib]EGTFTSDYSI[Aib]LEKQAQ[Aib]AFVQWLIK([γGlu-γGlu-γGlu-γGlu-γGlu-C20 diacid])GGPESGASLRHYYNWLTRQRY-NH2 [Compound 29]
log10 EC50: -0.64

substance: H-Y[Aib]EGTFTSDYSI[Aib]LEKQAQ[Aib]EFVQWLIK([εLys-γGlu-γGlu-γGlu-γGlu-γGlu-γGlu-γGlu-C20 diacid])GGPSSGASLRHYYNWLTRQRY-NH2 [Compound 43]
log10 EC50: -0.19

substance: H-Y[Aib]EGTFTSDYSI[Aib]LEKQAQ[Aib]AFVQWLIK([εLys-γGlu-γGlu-γGlu-γGlu-γGlu-γGlu-C20 diacid])GGPSEYVSLRHYYNWLTRQRY-NH2 [Compound 78]
log10 EC50: -0.28

substance: H-Y[Aib]EGTFTSDYSI[Aib]LEKQAQ[Aib]EFVEWLIK([γGlu-γGlu-γGlu-γGlu-C18 diacid])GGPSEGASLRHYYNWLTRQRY-NH2 [Compound 276]
log10 EC50: -0.43

substance: H-Y[Aib]EGTFTSDYSI[Aib]LEKQAQ[Aib]AFVQWLIK([εLys-γGlu-γGlu-γGlu-γGlu-γGlu-γGlu-C20 diacid])GGPRYYASLRHYYNWLTRQRY-NH2 [Compound 14]
log10 EC50: -0.15

substance: Y[Aib]EGTFTSDYSI[Aib]LEKQAQ[Aib]AFVEWLIK([AEEA-AEEA-γGlu-γGlu-γGlu-γGlu-C18 diacid])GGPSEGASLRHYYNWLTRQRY-NH2 [Compound 297]
log10 EC50: -0.60

Sourced from patent US20240247080A1
